Provenance of the data: patent US10259796B2

Target Of Assay: recombinant human MetAP2 (Homo sapiens)
Construct: made in house; host or cells: High Five insect cells (Bac-to-Bac baculovirus)
Test Description: MetAP2 enzyme assay (inhibition of recombinant MetAP2, Met-Gly-Met-Met substrate)
Format: biochemical
Experimental Setup: 1 hr, 50 nM; read-out: MetAP2 Enzyme Assay 1 hr 50 nM
Reported Property: inhibition at 0.05 µM (%)
Express your answer in %, writing the number without its unit.

Return inhibition at 0.05 µM for the following compound: C=C1CC[C@]2(CO2)[C@@H]([C@@]2(C)O[C@@H]2CC=C(C)C)[C@@H]1OC [Example 15]
26

Return inhibition at 0.05 µM for the following compound: CO[C@@H]1C(=O)CC[C@@](C)(O)[C@H]1[C@@]1(C)O[C@@H]1CCC(C)C [Example 54]
0

Return inhibition at 0.05 µM for the following compound: CO[C@@H]1C(=O)CC[C@]2(CO2)[C@H]1[C@@]1(C)O[C@@H]1CC=C(C)C [Example 51]
0

====

Field: IC50. Provide a value for each of the molecules that follow.
Test Description: Cell Based Assay (inhibition range)
Experimental Setup: cells printed in nM

Return IC50 for the following molecule: "CCCC/C=C/C[C@H]1O[C@]1(C)[C@H]1[C@H](OC)C(=O)CC[C@]12CO2"
10 to 100 nM

Return IC50 for the following molecule: CO[C@@H]1[C@H](OC(=O)NCCC2CCCN2C)CC[C@]2(CO2)[C@H]1[C@@]1(C)O[C@@H]1CC=C(C)C (stereo partly drawn)
< 10 nM

Return IC50 for the following molecule: "CO[C@@H]1[C@H](OC(=O)CCCCCCCCC(=O)O[C@@H]2CC[C@]3(CO3)[C@@H]([C@@]3(C)O[C@@H]3CC=C(C)C)[C@@H]2OC)CC[C@]2(CO2)[C@H]1[C@@]1(C)O[C@@H]1CC=C(C)C"
10 to 100 nM

Return IC50 for the following molecule: "CO[C@@H]1[C@@H](F)CC[C@]2(CO2)[C@H]1[C@@]1(C)O[C@@H]1CC=C(C)C"
10 to 100 nM

Return IC50 for the following molecule: "CCCC/C=C/C[C@H]1O[C@]1(C)[C@H]1[C@H](OC)[C@H](O)CC[C@]12CO2"
10 to 100 nM

Return IC50 for the following molecule: "CO[C@@H]1C(=O)CC[C@]2(CO2)[C@H]1[C@@]1(C)O[C@@H]1CC=C(C)C"
< 10 nM

Return IC50 for the following molecule: CCOC(=O)CCCCC/C=C/C[C@H]1OC1(C)[C@H]1[C@H](OC)C(=O)CC[C@]12CO2 (stereo partly drawn)
10 to 100 nM

Return IC50 for the following molecule: "CO[C@@H]1[C@H](OC(=O)CCCCCCCCC(=O)O)CC[C@]2(CO2)[C@H]1[C@@]1(C)O[C@@H]1CC=C(C)C"
< 10 nM

Return IC50 for the following molecule: "CCOC(=O)C=C1CC[C@]2(CO2)[C@@H]([C@@]2(C)O[C@@H]2CC=C(C)C)[C@@H]1OC"
< 10 nM

Return IC50 for the following molecule: "CO[C@@H]1[C@H](OC(=O)N[C@@H](C(N)=O)C(C)C)CC[C@]2(CO2)[C@H]1[C@@]1(C)O[C@@H]1CC=C(C)C"
< 10 nM

Return IC50 for the following molecule: CO[C@@H]1[C@H](OC(=O)N[C@@H](C(=O)NCCC2CCCN2C)C(C)C)CC[C@]2(CO2)[C@H]1[C@@]1(C)O[C@@H]1CC=C(C)C (stereo partly drawn)
< 10 nM

Return IC50 for the following molecule: "CO[C@@H]1[C@H](OC(=O)/C=C/C=C/C=C/C=C/C(=O)O)CC[C@]2(CO2)[C@H]1[C@@]1(C)O[C@@H]1CC=C(C)C"
< 10 nM

====

Target Of Assay: recombinant human MetAP2 (Homo sapiens)
Construct: made in house; host or cells: High Five insect cells (Bac-to-Bac baculovirus)
Test Description: MetAP2 enzyme assay (inhibition of recombinant MetAP2, Met-Gly-Met-Met substrate)
Format: biochemical
Experimental Setup: 4 hr, 50 nM; read-out: MetAP2 Enzyme Assay 4 hr 50 nM
Reported Property: inhibition at 0.05 µM
Please give the number followed by its unit.

Return inhibition at 0.05 µM for the following compound: CO[C@@H]1C(=O)CC[C@]2(CO2)[C@H]1[C@@]1(C)O[C@@H]1CC=C(C)C [Example 51]
78%

Return inhibition at 0.05 µM for the following compound: "CO[C@@H]1[C@H](OC(=O)/C=C/C=C/C=C/C=C/C(=O)O)CC[C@]2(CO2)[C@H]1[C@@]1(C)O[C@@H]1CC=C(C)C"
64%

Return inhibition at 0.05 µM for the following compound: "CO[C@@H]1C(=O)CC[C@@](C)(O)[C@H]1[C@@]1(C)O[C@@H]1CCC(C)C"
0%

Return inhibition at 0.05 µM for the following compound: "COC(=O)CCCCCCCCC(=O)O[C@@H]1CC[C@]2(CO2)[C@@H]([C@@]2(C)O[C@@H]2CC=C(C)C)[C@@H]1OC"
94%

Return inhibition at 0.05 µM for the following compound: "C=C1CC[C@]2(CO2)[C@@H]([C@@]2(C)O[C@@H]2CC=C(C)C)[C@@H]1OC"
40%

Return inhibition at 0.05 µM for the following compound: "CCOC(=O)C=C1CC[C@]2(CO2)[C@@H]([C@@]2(C)O[C@@H]2CC=C(C)C)[C@@H]1OC"
96%

Return inhibition at 0.05 µM for the following compound: "CO[C@@H]1[C@H](OC(=O)N[C@@H](C(=O)NCCCN(C)C)C(C)C)CC[C@]2(CO2)[C@H]1[C@@]1(C)O[C@@H]1CC=C(C)C"
54%

Return inhibition at 0.05 µM for the following compound: "COC(=O)CCCCCCCCCO[C@H]1CC[C@]2(CO2)[C@@H]([C@@]2(C)O[C@@H]2CC=C(C)C)[C@@H]1OC"
0%

Return inhibition at 0.05 µM for the following compound: CCCCCCCCCC[S+]([O-])[C@@H]1CC[C@]2(CO2)[C@@H]([C@@]2(C)O[C@@H]2CC=C(C)C)[C@@H]1OC (some centres unmarked)
0%

Return inhibition at 0.05 µM for the following compound: "CO[C@@H]1[C@@H](F)CC[C@]2(CO2)[C@H]1[C@@]1(C)O[C@@H]1CC=C(C)C"
27%

Return inhibition at 0.05 µM for the following compound: "CCCCCCCCCCC(=O)O[C@@H]1CC[C@]2(CO2)[C@@H]([C@@]2(C)O[C@@H]2CC=C(C)C)[C@@H]1OC"
29%

Return inhibition at 0.05 µM for the following compound: "CO[C@@H]1C(=CC=C(C)C)CC[C@]2(CO2)[C@H]1[C@@]1(C)O[C@@H]1CC=C(C)C"
0%

Return inhibition at 0.05 µM for the following compound: "CO[C@@H]1C(=O)C=C[C@]2(CO2)[C@H]1[C@@]1(C)O[C@@H]1CC=C(C)C"
37%

Return inhibition at 0.05 µM for the following compound: "CO[C@@H]1[C@H](OC(=O)CCCCCCCCC(=O)O[C@@H]2CC[C@]3(CO3)[C@@H]([C@@]3(C)O[C@@H]3CC=C(C)C)[C@@H]2OC)CC[C@]2(CO2)[C@H]1[C@@]1(C)O[C@@H]1CC=C(C)C"
48%

====

Field: inhibition at 0.05 µM. Provide a value for each of the compounds that follow.
Target Of Assay: recombinant human MetAP2 (Homo sapiens, UniProt P50579)
Construct: made in house; host or cells: High Five insect cells (Bac-to-Bac baculovirus)
Sequence (P50579 whole entry): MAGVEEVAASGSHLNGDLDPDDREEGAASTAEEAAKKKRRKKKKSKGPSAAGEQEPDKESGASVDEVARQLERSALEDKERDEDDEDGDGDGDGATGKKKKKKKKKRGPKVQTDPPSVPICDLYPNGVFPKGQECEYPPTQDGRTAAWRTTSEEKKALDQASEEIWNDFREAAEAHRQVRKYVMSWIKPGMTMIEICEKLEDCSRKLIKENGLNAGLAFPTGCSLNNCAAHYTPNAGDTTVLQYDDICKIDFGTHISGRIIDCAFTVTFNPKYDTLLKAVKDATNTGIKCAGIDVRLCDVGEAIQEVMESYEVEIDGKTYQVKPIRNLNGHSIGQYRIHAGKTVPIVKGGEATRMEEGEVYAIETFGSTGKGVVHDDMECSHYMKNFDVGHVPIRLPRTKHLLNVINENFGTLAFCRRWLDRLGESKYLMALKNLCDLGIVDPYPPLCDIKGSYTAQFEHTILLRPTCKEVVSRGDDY
Test Description: MetAP2 enzyme assay (inhibition of recombinant MetAP2, Met-Gly-Met-Met substrate)
Format: biochemical
Experimental Setup: 1 hr, 50 nM; read-out: MetAP2 Enzyme Assay 1 hr 50 nM
Express your answer in %, writing the number without its unit.

Return inhibition at 0.05 µM for the following compound: "CO[C@@H]1[C@H](OC(=O)N[C@@H](C(N)=O)C(C)C)CC[C@]2(CO2)[C@H]1[C@@]1(C)O[C@@H]1CC=C(C)C"
62

Return inhibition at 0.05 µM for the following compound: "COC(=O)CCCCCCCCCO[C@@H]1CC[C@]2(CO2)[C@@H]([C@@]2(C)O[C@@H]2CC=C(C)C)[C@@H]1OC"
0

Return inhibition at 0.05 µM for the following compound: "CCCCCCCCCCC(=O)O[C@@H]1CC[C@]2(CO2)[C@@H]([C@@]2(C)O[C@@H]2CC=C(C)C)[C@@H]1OC"
0

Return inhibition at 0.05 µM for the following compound: "CCCC/C=C/C[C@H]1O[C@]1(C)[C@H]1[C@H](OC)C(=O)CC[C@]12CO2"
19

Return inhibition at 0.05 µM for the following compound: "COC(=O)CCCCCCCCC(=O)O[C@@H]1CC[C@]2(CO2)[C@@H]([C@@]2(C)O[C@@H]2CC=C(C)C)[C@@H]1OC"
46

Return inhibition at 0.05 µM for the following compound: CO[C@@H]1C(=O)C(C)C[C@]2(CO2)C1[C@@]1(C)O[C@@H]1CC=C(C)C (stereo partly shown)
0

Return inhibition at 0.05 µM for the following compound: "C=C1CC[C@]2(CO2)[C@@H]([C@@]2(C)O[C@@H]2C/C=C/CCCC)[C@@H]1OC"
0
